Measured values drawn from patent US5506211A for this set.

Test summary: Aqueous solubility
Format: physicochemical
Study conditions: water
Readout label: solubility

{"Compound": "O=c1c(-c2ccc(O)cc2)coc2cc(O)cc(O)c12 [genistein, 5,7,4'-trihydroxyisoflavone]", "Result": "< 50 µg/mL"}

---

Test summary: in vitro
Study conditions: osteoclasts

{"Molecule": "O=c1c(-c2ccc(O)cc2)coc2cc(O)cc(O)c12 [genistein, 5,7,4'-trihydroxyisoflavone]", "selectivity ratio": "~30"}

---

Test summary: Biliary appearance of intestinally administered genistein in rats
Type: in vivo
Study conditions: rat, bile, intestinal administration with NaTC, over a 4 hr period, read-out: fraction of administered genistein appearing in bile

{"Compound": "O=c1c(-c2ccc(O)cc2)coc2cc(O)cc(O)c12 [genistein, 5,7,4'-trihydroxyisoflavone]", "dose excreted at 4 h": "40 to 50%"}
